molecular target: T1, full-length human SIRPαV2 D→E on Expi-CHO cells (human, UniProt P78324 31-504); assay: flow cytometry, Expi-CHO cells
T1 construct: the entry already carries the change (SPDT to SPET)
T1 sequence (P78324 other isoform, or with tags, fused parts or gaps): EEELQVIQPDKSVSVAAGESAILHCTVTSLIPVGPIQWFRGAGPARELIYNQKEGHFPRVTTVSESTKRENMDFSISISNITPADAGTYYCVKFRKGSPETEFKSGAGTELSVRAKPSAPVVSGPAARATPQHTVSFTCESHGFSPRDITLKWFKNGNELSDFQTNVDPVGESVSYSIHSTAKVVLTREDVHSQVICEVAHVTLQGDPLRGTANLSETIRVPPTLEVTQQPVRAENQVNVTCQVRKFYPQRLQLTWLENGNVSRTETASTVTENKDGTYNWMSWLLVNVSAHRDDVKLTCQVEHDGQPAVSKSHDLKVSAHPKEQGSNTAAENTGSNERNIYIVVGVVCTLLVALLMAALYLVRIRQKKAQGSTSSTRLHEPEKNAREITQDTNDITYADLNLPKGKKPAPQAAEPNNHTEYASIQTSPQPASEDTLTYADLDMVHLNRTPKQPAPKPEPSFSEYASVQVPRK
Test readout: EC50
Show the value, then the unit it is measured in.

So for Antibody E22 (antibody, human IgG1, kappa, L234A L235A, V domains shown) VH: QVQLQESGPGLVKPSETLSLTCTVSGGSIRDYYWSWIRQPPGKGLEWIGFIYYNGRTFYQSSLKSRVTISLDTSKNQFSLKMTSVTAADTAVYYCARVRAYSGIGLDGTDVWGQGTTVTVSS VL: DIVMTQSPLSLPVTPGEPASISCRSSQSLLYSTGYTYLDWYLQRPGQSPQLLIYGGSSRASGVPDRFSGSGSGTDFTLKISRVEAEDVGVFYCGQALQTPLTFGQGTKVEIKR , the logged EC50 turned out to be 0.4 nM
